// reported Fold-Synergistic 1a (Q30E) per item
Test system: HCV replicon, genotype-1a variant with glutamine 30 changed to glutamate in the NS5A protein
Assay: microbe, parasite or virus in culture
Format: cell-based, HCV genotype 1a
Conditions: HCV replicon genotype 1a Q30E (Q→E) variant; test compound titrated with an NS5A-targeting compound (BMS-790052 fixed at 200 nM); ranking of synergist activity
attribute_measured: Fold-Synergistic 1a (Q30E)

1) O=C(c1ccc2ncsc2c1)N1CCC[C@H]1c1ncc(-c2ccc(-c3ccc(-c4cnc([C@@H]5CCCN5C(=O)c5ccc6ncsc6c5)[nH]4)cc3)cc2)[nH]1 [Compound S-136] | <10 fold
2) COCCC(=O)N1CCC[C@H]1c1ncc(-c2ccc(-c3ccc(-c4cnc([C@@H]5CCCN5C(=O)CCOC)[nH]4)cc3)cc2)[nH]1 [Compound S-192] | <10 fold
3) COC(=O)N1C[C@H](F)C[C@H]1C(=O)N[C@H](c1nc(-c2ccc(-c3ccc(-c4c[nH]c([C@@H](NC(=O)[C@@H]5C[C@@H](F)CN5C(=O)OC)C(C)(C)C)n4)cc3)cc2)c[nH]1)C(C)(C)C [Compound W-109] | >100 fold
4) CC(C)(C)[C@H](NC(=O)CC1CCCO1)c1nc(-c2ccc(-c3ccc(-c4c[nH]c([C@@H](NC(=O)CC5CCCO5)C(C)(C)C)n4)cc3)cc2)c[nH]1 (stereo partly drawn) [Compound L-70] | >100 fold
5) COC1(C(F)(F)C(=O)N[C@H](c2nc(-c3ccc(-c4ccc(-c5c[nH]c([C@@H](NC(=O)C(F)(F)C6(OC)CCCCC6)C(C)(C)C)n5)cc4)cc3)c[nH]2)C(C)(C)C)CCCCC1 [Compound P-167] | >100 fold
